ASSAY PROCEDURE: Solution stability test (residual ratio and generation of active form in buffers of pH 2.0 to 9.0)
Assay type: physicochemical
TEST CONTEXT: pH3.0 buffer, 25° C., 25 umol/L, 3 hr
Method: The test compounds were incubated at 25° C. at a concentration of 25 umol/L in a buffer prepared to have a pH of 2.0, 3.0, 5.0, 7.4, and 9.0. The compounds were measured by HPLC after 0, 3, 6, 9, 12, and 24 hours. […] The yield of the Example and Reference Example compounds and active forms is calculated with each of the peak area of the Example and Reference Example compounds at 0 minutes and the peak area upon dissolution of the corresponding active form at 100 umol/L as 100%. […]
Counter-ions that a name gives are not always drawn.
Please provide measured Residual ratio for the entries that follow.
Answers are plain numbers, in %.

Which Residual ratio is reported for this compound? NCCCNC(=O)Oc1c(OC(=O)NCCCN)c(-c2ccccc2)c2c(c1-c1ccccc1)OCO2
100

What about Cc1cc(OC(=O)NCCNCC(=O)O)c2ccccc2c1OC(=O)NCCNCC(=O)O [Example 2, dihydrochloride] ?
101

Record Residual ratio for all entries; do not skip any.
1. C[C@H]1COc2c1c(OC(=O)NCCNCC(=O)O)c(OC(=O)NCCNCC(=O)O)c1c3c(ccc21)C(C)(C)CCC3 [Example 12, dihydrochloride]
2. CC(=O)c1cc2c(OC(=O)NCCNCC(=O)O)c3ccsc3c(OC(=O)NCCNCC(=O)O)c2o1 [Example 1, dihydrochloride]
3. CC(=O)c1cc2c(O)c3c(O)cccc3c(OC(=O)NCCCN)c2o1 [Reference Example 9, hydrochloride]
4. C[C@H]1COc2c1c(OC(=O)NCCCNCC(=O)O)c(OC(=O)NCCCNCC(=O)O)c1c3c(ccc21)C(C)(C)CCC3 [Example 13, dihydrochloride]

[99.2, 97.6, 100, 100]

So what's the measured Residual ratio for this one? CN1CC[C@H](c2c(OC(=O)N(C)CCN)cc(O)c3c(=O)cc(-c4ccccc4Cl)oc23)[C@H](O)C1
100

====

ASSAY PROCEDURE: Solution stability test (residual ratio and generation of active form in buffers of pH 2.0 to 9.0)
Assay type: physicochemical
TEST CONTEXT: pH7.4 buffer, 25° C., 25 umol/L, 6 hr
Where a name gives a salt, the structure may show the parent alone.
Under this convention, rule met denotes Residual ratio strictly below 40% and rule not met denotes Residual ratio at or above 40%.

Answered cases to consult:
I wonder whether CC(=O)c1cc2c(OC(=O)NCCNCC(=O)O)c3ccsc3c(OC(=O)NCCNCC(=O)O)c2o1 [Example 1, dihydrochloride] has Residual ratio below 40%. Can you tell?
rule met

Next compound up: NCCCNC(=O)Oc1c(OC(=O)NCCCN)c(-c2ccccc2)c2c(c1-c1ccccc1)OCO2
rule not met

Now try C[C@H]1COc2c1c(OC(=O)NCCNCC(=O)O)c(OC(=O)NCCNCC(=O)O)c1c3c(ccc21)C(C)(C)CCC3 [Example 12, dihydrochloride] .
rule met

Further cases:
Threshold test, Residual ratio < 40%: Cc1cc(OC(=O)NCCNCC(=O)O)c2ccccc2c1OC(=O)NCCNCC(=O)O [Example 2, dihydrochloride]
rule met

Check C[C@H]1COc2c1c(OC(=O)NCCCNCC(=O)O)c(OC(=O)NCCCNCC(=O)O)c1c3c(ccc21)C(C)(C)CCC3 [Example 13, dihydrochloride] too.
rule not met

Note, next up: CN1CC[C@H](c2c(OC(=O)N(C)CCN)cc(O)c3c(=O)cc(-c4ccccc4Cl)oc23)[C@H](O)C1
rule met

Please do the same for CC(=O)c1cc2c(O)c3c(O)cccc3c(OC(=O)NCCCN)c2o1 [Reference Example 9, hydrochloride] as well.
rule not met

====

ASSAY PROCEDURE: Solution stability test (residual ratio and generation of active form in buffers of pH 2.0 to 9.0)
Type: physicochemical
TEST CONTEXT: pH of 2.0, 25° C.
Where a name gives a salt, the structure may show the parent alone.
MEASURED ENDPOINT: Stability in solution (in words)

These recorded examples may help you get a feel for the data.
Bench note: what Stability in solution (in words) did CN1CC[C@H](c2c(OC(=O)N(C)CCN)cc(O)c3c(=O)cc(-c4ccccc4Cl)oc23)[C@H](O)C1 show?
sufficient stability

Another: CC1(C)CCc2c(OC(=O)NCCNCC(=O)O)c(OC(=O)NCCNCC(=O)O)c3ccccc3c2O1 [Example 4, dihydrochloride]
sufficient stability

Can you handle CC(=O)c1cc2c(OC(=O)NCCNCC(=O)O)c3ccsc3c(OC(=O)NCCNCC(=O)O)c2o1 [Example 1, dihydrochloride] next?
very stable

// query: CNCCN(C)C(=O)Oc1cc(O)c2c(=O)cc(-c3ccccc3Cl)oc2c1[C@H]1CCN(C)C[C@H]1O [Example 10, ditrifluoroacetate]
sufficient stability

Could you do the same for CC(=O)c1cc2c(O)c3c(O)cccc3c(OC(=O)NCCCN)c2o1 [Reference Example 9, hydrochloride] , please?
sufficient stability

The following compounds each have a reported value; give each one's Stability in solution (in words).
1. Cc1cc(OC(=O)NCCNCC(=O)O)c2ccccc2c1OC(=O)NCCNCC(=O)O [Example 2, dihydrochloride]
2. C[C@H]1COc2c1c(OC(=O)NCCNCC(=O)O)c(OC(=O)NCCNCC(=O)O)c1c3c(ccc21)C(C)(C)CCC3 [Example 12, dihydrochloride]

1. very stable
2. stable

====

ASSAY PROCEDURE: Solution stability test (residual ratio and generation of active form in buffers of pH 2.0 to 9.0)
Type: physicochemical
TEST CONTEXT: pH3.0 buffer, 25° C., 25 umol/L, 0 hr
Where a name gives a salt, the structure may show the parent alone.
I'd appreciate it if you could supply Residual ratio values for the items below.
Answers are plain numbers, in %.

Consider the following illustrative entries.
Which Residual ratio is reported for this compound? CC(=O)c1cc2c(O)c3c(O)cccc3c(OC(=O)NCCCN)c2o1 [Reference Example 9, hydrochloride]
101

Then what about the compound Cc1cc(OC(=O)NCCNCC(=O)O)c2ccccc2c1OC(=O)NCCNCC(=O)O [Example 2, dihydrochloride] ?
101

Next:
Suppose we examine the compound C[C@H]1COc2c1c(OC(=O)NCCNCC(=O)O)c(OC(=O)NCCNCC(=O)O)c1c3c(ccc21)C(C)(C)CCC3 [Example 12, dihydrochloride] ; what Residual ratio value has been reported?
100

====

ASSAY PROCEDURE: Solution stability test (residual ratio and generation of active form in buffers of pH 2.0 to 9.0)
Format: physicochemical
TEST CONTEXT: pH3.0 buffer, 25° C., 25 umol/L, 0 hr
Structures can show the parent of a compound that is named as a salt.
MEASURED ENDPOINT: Residual ratio (%)
Numbers only, in %.

Answered cases to consult:
I have this molecule here, C[C@H]1COc2c1c(OC(=O)NCCCNCC(=O)O)c(OC(=O)NCCCNCC(=O)O)c1c3c(ccc21)C(C)(C)CCC3 [Example 13, dihydrochloride] , and I need its recorded Residual ratio.
100

Continue with CC(=O)c1cc2c(OC(=O)NCCNCC(=O)O)c3ccsc3c(OC(=O)NCCNCC(=O)O)c2o1 [Example 1, dihydrochloride]
99.9

Try this molecule too: NCCCNC(=O)Oc1c(OC(=O)NCCCN)c(-c2ccccc2)c2c(c1-c1ccccc1)OCO2 [Example 6]
100

Proceeding to the next molecule to report its Residual ratio.
Returns the measured Residual ratio for the input molecule. Input: CN1CC[C@H](c2c(OC(=O)N(C)CCN)cc(O)c3c(=O)cc(-c4ccccc4Cl)oc23)[C@H](O)C1 [Example 8]
100

====

Provide the recorded Residual ratio for the entries that follow.
ASSAY PROCEDURE: Solution stability test (residual ratio and generation of active form in buffers of pH 2.0 to 9.0)
Assay type: physicochemical
TEST CONTEXT: pH7.4 buffer, 25° C., 25 umol/L, 0 hr
Where a name gives a salt, the structure may show the parent alone.
One number for each entry, in %.

The cases that follow already have their Residual ratio on record.
Looking for the measured Residual ratio of NCCCNC(=O)Oc1c(OC(=O)NCCCN)c(-c2ccccc2)c2c(c1-c1ccccc1)OCO2 , can you help?
96.8

And the next one, CC(=O)c1cc2c(O)c3c(O)cccc3c(OC(=O)NCCCN)c2o1 [Reference Example 9, hydrochloride] ?
103

Further, for C[C@H]1COc2c1c(OC(=O)NCCCNCC(=O)O)c(OC(=O)NCCCNCC(=O)O)c1c3c(ccc21)C(C)(C)CCC3 [Example 13, dihydrochloride] ?
100

Same for Cc1cc(OC(=O)NCCNCC(=O)O)c2ccccc2c1OC(=O)NCCNCC(=O)O [Example 2, dihydrochloride]
102

Now give it for CN1CC[C@H](c2c(OC(=O)N(C)CCN)cc(O)c3c(=O)cc(-c4ccccc4Cl)oc23)[C@H](O)C1 too.
76.4

Could you now look at the following compound, please?
Fill in: Residual ratio of C[C@H]1COc2c1c(OC(=O)NCCNCC(=O)O)c(OC(=O)NCCNCC(=O)O)c1c3c(ccc21)C(C)(C)CCC3 [Example 12, dihydrochloride] is ___
100
